Tested system: T1, FGFR3 (wild type) on cells (human, UniProt P22607 23-806)
T1 construct: also called FDCP-FR3; FDCP-FGFR3
T1 sequence (P22607 23-806 limits assumed): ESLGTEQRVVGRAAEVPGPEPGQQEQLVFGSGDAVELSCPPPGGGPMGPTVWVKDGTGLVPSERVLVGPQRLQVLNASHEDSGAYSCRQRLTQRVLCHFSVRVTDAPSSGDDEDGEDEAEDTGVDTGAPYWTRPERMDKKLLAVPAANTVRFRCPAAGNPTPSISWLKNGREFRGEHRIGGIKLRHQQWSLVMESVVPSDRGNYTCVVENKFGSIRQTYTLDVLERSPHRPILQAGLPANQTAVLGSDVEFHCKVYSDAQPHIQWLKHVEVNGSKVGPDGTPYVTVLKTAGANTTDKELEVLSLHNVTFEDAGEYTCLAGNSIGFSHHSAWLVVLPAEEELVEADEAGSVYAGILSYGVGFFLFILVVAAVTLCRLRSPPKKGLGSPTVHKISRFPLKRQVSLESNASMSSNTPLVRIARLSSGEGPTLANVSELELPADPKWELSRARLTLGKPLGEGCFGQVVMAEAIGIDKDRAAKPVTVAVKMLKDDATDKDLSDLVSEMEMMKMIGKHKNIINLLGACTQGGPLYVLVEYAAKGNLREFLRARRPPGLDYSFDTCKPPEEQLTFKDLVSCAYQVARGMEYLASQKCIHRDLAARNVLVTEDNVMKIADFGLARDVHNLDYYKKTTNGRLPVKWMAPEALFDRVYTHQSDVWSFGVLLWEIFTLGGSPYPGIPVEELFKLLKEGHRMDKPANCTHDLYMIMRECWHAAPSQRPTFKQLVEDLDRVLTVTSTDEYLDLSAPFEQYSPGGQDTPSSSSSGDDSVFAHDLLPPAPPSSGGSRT
Experiment notes: FACS
For each record, write down the corresponding Kd.
Give bare numbers, in nM.

| Binder | Unit symbol | Measured number |
| --- | --- | --- |
| MSPRO28 (Fab, V domains shown) VH: QVQLVQSGAEVKKPGSSVKVSCKASGGTFSSYAISWVRQAPGQGLEWMGGIIPIFGTANYAQKFQGRVTITADESTSTAYMELSSLRSEDTAVYYCARGGGWVSHGYYYLFDLWGQGTLVTVSS VL: DIQMTQSPSSLSASVGDRVTITCRASQGISSYLAWYQQKPGKAPKLLIYAASSLQSGVPSRFSGSGSGTDFTLTISSLQPEDFAVYYCFQYGSIPPTFGQGTKVEIKR | nM | 0.3 |
| MSPRO2 (Fab, V domains shown) VH: QVQLVQSGAEVKKPGASVKVSCKASGYTFTSYYMHWVRQAPGQGLEWMGWINPNSGGTNYAQKFQGRVTMTRDTSISTAYMELSSLRSEDTAVYYCARDFLGYEFDYWGQGTLVTVSS VL: DIELTQPPSVSVAPGQTARISCSGDALGDKYASWYQQKPGQAPVLVIYDDSDRPSGIPERFSGSNSGNTATLTISGTQAEDEADYYCQSYDYSADYVFGGGTKLTVLG | nM | 43 |

input: Any idea what Kd was measured for MSPRO11 (Fab, V domains shown) VH: QVQLVQSGAEVKKPGASVKVSCKASGYTFTSYYMHWVRQAPGQGLEWMGWINPNSGGTNYAQKFQGRVTMTRDTSISTAYMELSSLRSEDTAVYYCARYYGSSLYHYVFGGFIDYWGQGTLVTVSS VL: DIALTQPASVSGSPGQSITISCTGTSSDVGGYNYVSWYQQHPGKAPKLMIYDVSNRPSGVSNRFSGSKSGNTASLTISGLQAEDEADYYCQSHHFYEVFGGGTKLTVLG ?
output: 4

Where these numbers come from: patent US20090202547A1
